# Assay Info: Oral bioavailability in mouse
# Type: ADME, organism-based
# Setup Conditions: in vivo, dose 10 mg/kg
Property Name: bioavailability (%)
Enter your answer as a number in %; do not include the unit.

Ask: Supply recorded bioavailability for O=C(OC1CN2CCC1CC2)N1CCc2ccccc2[C@@H]1c1ccc(F)cc1 (some centres not stated) here.
Reply: 64

Ask: Using the record for `O=C(OCC12CCN(CC1)CC2)N1CCc2ccccc2[C@H]1c1ccc(F)cc1` , state its measured bioavailability.
Reply: 41

* * *

Assignment: determine reported Vd for the given compounds.
# Assay Info: Volume of distribution at steady state in rat
# Assay type: ADME
# Setup Conditions: in vivo, read-out: Vdss
Number only, in L/kg; omit the unit.

Ask: Quick one: give measured Vd for `O=C(OCC12CCN(CC1)CC2)N1CCc2ccccc2[C@H]1c1ccc(F)cc1`
Reply: 16.2

Ask: Tell me its Vd given O=C(OC1CN2CCC1CC2)N1CCc2ccccc2[C@@H]1c1ccc(F)cc1 (some centres not stated) as the entry.
Reply: 4.65
